# credit: patent US20180057505A1

target: PAR2 (HT-29 cells) (Homo sapiens); construct: host or cells: HT-29; assay: Ca FLIPR TETRA assay, ANTAGONIST mode, activator 8 μM SLIGKV; type: cell-based; conditions: HT-29 cells; activator 8 μM SLIGKV; Method A: maximal concentration of antagonist 0.1, 1 or 2 μM
Sequence (P55085 26-397): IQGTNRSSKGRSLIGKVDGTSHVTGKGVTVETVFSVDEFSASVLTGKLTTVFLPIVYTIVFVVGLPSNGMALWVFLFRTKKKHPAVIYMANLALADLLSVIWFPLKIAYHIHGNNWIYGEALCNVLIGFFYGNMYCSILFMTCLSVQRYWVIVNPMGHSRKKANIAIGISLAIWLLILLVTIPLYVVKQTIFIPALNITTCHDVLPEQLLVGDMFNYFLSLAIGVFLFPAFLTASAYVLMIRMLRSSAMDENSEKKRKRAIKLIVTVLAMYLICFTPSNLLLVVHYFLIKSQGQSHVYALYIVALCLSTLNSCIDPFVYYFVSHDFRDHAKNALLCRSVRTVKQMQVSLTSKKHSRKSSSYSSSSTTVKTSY
pIC50: −log10 of the molar value.
Please mark 1 if the recorded pIC50 is equal to or greater than 8, and -1 if it falls below.

Examples from the recorded data:
- structure-smiles-string: "Cc1ccc(N2CCN(C(=O)c3cc4nc(-c5ccc(Cl)cc5)cc(C(C)(C)C)c4o3)C(C)(C)C2)nc1-c1nnn[nH]1"
  category: 1
- structure-smiles-string: "CC(C)(C)c1cc(-c2ccc(Cl)c(F)c2)nc2cc(C(=O)N3CCN(S(=O)(=O)NC4CC4)CC3(C)C)oc12"
  category: -1
- structure-smiles-string: "CC(C)(C)c1cc(-c2ccc(Cl)c(F)c2)nc2cc(C(=O)N3CCN(C(=O)[C@H]4CCS(=O)(=O)N4)CC3(C)C)oc12"
  category: -1
- structure-smiles-string: "CC(C)(C)c1cc(-c2ccc(Cl)c(F)c2)nc2cc(C(=O)N3CCN(C(=O)[C@@H]4CCC[C@H](C(=O)O)C4)CC3(C)C)oc12"
  category: 1
- structure-smiles-string: "CC(C)(C)c1cc(-c2ccc(Cl)c(F)c2)nc2cc(C(=O)N3CCN(c4cccc(C(N)=O)n4)CC3(C)C)oc12"
  category: 1

Data request: Is pIC50 for CC1(C)CCC(c2cc(C(C)(C)C)c3oc(C(=O)N4CCN(C(=O)CC[C@H](N)C(=O)O)CC4(C)C)cc3n2)CC1 at or above 8?
Data returned: -1

* * *

Kindly supply the reported pIC50 values for the records listed here.
biological target: PAR2 (HT-29 cells) (Homo sapiens); construct: host or cells: HT-29; test: Ca FLIPR TETRA assay, ANTAGONIST mode, activator 8 μM SLIGKV; assay type: cell-based; conditions: HT-29 cells; activator 8 μM SLIGKV; Method A: maximal concentration of antagonist 0.1, 1 or 2 μM
Answers are plain numbers, as −log10 of the molar value.

- structure-smiles-string: "CC(C)(C)c1cc(-c2ccc(Cl)c(F)c2)nc2cc(C(=O)N3CCN(c4cc(C(F)(F)F)cnc4C(=O)O)CC3(C)C)oc12"
  pIC50: 7.80
- structure-smiles-string: "CC(C)(C)c1cc(-c2ccc(Cl)c(F)c2)nc2cc(C(=O)N3CCN(c4ccccn4)C(=O)C3(C)C)oc12"
  pIC50: 7.92

Data request: Recorded pIC50 of CC(C)(C)c1cc(-c2ccc(Cl)cc2)nc2cc(C(=O)N3CCN(c4cnc(C(=O)O)cn4)CC3(C)C)oc12 , please.
Data returned: 8.05
